test system: NCI-H460 lung
Use one of these outcomes when replying: t = active, f = inactive

Some solved cases for reference:
[
  {
    "Compound": "Cc1ccc(-c2nc(C(Cl)Cl)n3nc(-c4ccccc4)cc3n2)cc1",
    "Group Label": "t"
  },
  {
    "Compound": "CCCS(=O)(=O)c1nc(NC2CC2)cc(-c2ccc3c(ccn3C3CC(C)(C)NC(C)(C)C3)c2)n1",
    "Group Label": "f"
  }
]

Ask: Test call, this compound: `C=C1CC(COc2cc(Cl)nc(N)n2)C1`
Result: f

Ask: Lab log entry: `CNC(=O)c1ccc(-c2cnc3ncc(Cc4ccc5ncccc5c4)n3n2)cc1F` — outcome as called in the assay?
Result: f

Ask: What did the test return for `CN(C)CCNC(=O)Nc1c(C#N)[n+]([O-])c2cc(Cl)c(Cl)cc2[n+]1[O-]` ?
Result: f

Ask: For `O=C(Nc1cc(-c2ccccc2)[nH]n1)c1ccc(Cl)cc1` , what call appears in the results of this test?
Result: f

Ask: Which outcome was assigned to `O=C1c2ccccc2-c2c1c1ccccc1c(=O)n2CCNCCCNCCn1c2c(c3ccccc3c1=O)C(=O)c1ccccc1-2` in this test?
Result: t

Ask: Would you mind telling me which call this test gave `CNC(=O)c1cn(C[C@H](F)CCc2ccc(NC(=O)Cc3cc(OC4CC(F)(F)C4)cc(C)n3)nn2)nn1` ?
Result: f

Ask: Tell me the assay call for `CCCSc1cc(Cl)nc(N)n1` please.
Result: f

Ask: Assay outcome for `CCN(Cc1c(F)cccc1F)c1ccc(CO)c(Cl)c1` : what was it?
Result: t

Ask: Look up the recorded call for COc1cc(/C=C2\CC3C4CC=C5CC(N6CCCC6)CC[C@]5(C)C4CC[C@]3(C)C2OC(C)=O)ccc1OCCN1CCCC1 (stereo partly specified) in this test.
Result: f

====

test system: HT29 colon; assay: NCI tumour cell line growth inhibition, 48 h
Metric Name: TGI

[
  {
    "Compound": "NCCN1CCN(c2nccc(-c3ccc4ccccc4c3)n2)CC1",
    "Target Or Test System": "HT29 colon",
    "Metric Name": "TGI",
    "Result": "3.77 µM"
  },
  {
    "Compound": "CCN(CCO)CCNc1ccc(C)c2sc3cc(Cl)ccc3c(=O)c12",
    "Target Or Test System": "HT29 colon",
    "Metric Name": "TGI",
    "Result": "2.62 µM"
  }
]

Ask: Give the measured TGI of FC(F)(F)c1ccc2c(Nc3cccc(C4CC(c5ccccc5)=NN4c4ccc(Cl)cc4)c3)ccnc2c1 (stereo not given) .
Result: 12.5 µM

Ask: Any idea what TGI was measured for `CCn1c(-c2nonc2N)nc2ccc(F)cc21` ?
Result: > 25 µM

Ask: Quick check: TGI of C=C1CC=CC(C)(C)C1C/C=C(\C)C(O)CBr (stereo not given) ?
Result: > 100 µM

Ask: For COC(=O)C1=C(C(=O)OC)C2(C)CCC(=O)C1O2 (stereo not given) , what is its reported TGI?
Result: > 10 µM

Ask: Look up TGI: `Nc1n[nH]c2ccccc12`
Result: > 100 µM

Ask: For the compound shown here, `C=C1C(=O)O[C@H]2[C@H]1CC/C(COC(=O)c1cc3cc(OC)ccc3[nH]1)=C\CC[C@@]1(C)O[C@@H]21` , give the reported TGI.
Result: 1.47 µM

Ask: Quick check: TGI of CCOC(=O)C1=C(C)NC(=O)N([N+](=O)[O-])C1c1ccccc1C(F)(F)F (stereo not given) ?
Result: > 100 µM

Ask: # get_value(readout='TGI', item= CC/C=C\C/C=C\C1CC(=O)NCCCNCCCCN1 (stereo not given) )
Result: > 100 µM

// data source = PubChem BioAssay (NCI)
